This section presents pIC50 values reported for Collagenase 3 (Homo sapiens) in the literature.
pIC50: −log10 of the molar value.

The following molecules have reported results that may help.
O=C1COc2ccc(CNC(=O)c3nc4sc5c(c4c(=O)[nH]3)CC(C(=O)O)C5)cc2N1 (stereo not drawn) :: > 7.00
CC(=NO)c1sc2nc(C(=O)NCc3ccc4c(c3)NC(=O)CO4)[nH]c(=O)c2c1C :: > 7.00
CC#CCOc1ccc(SCC2(C(=O)NO)CCNCC2)cc1 :: < 5.00
COC(=O)c1cccc2nc(C(=O)NCc3ccc4c(c3)NC(=O)CO4)[nH]c(=O)c12 :: > 7.00
O=C1COc2ccc(CNC(=O)c3nc4[nH]ncc4c(=O)[nH]3)cc2N1 :: 4.70 to 7.00

-- ask // fetch Collagenase 3 (Homo sapiens) pIC50 for `O=C1COc2ccc(CNC(=O)c3nc4ccc(C(=O)O)cc4c(=O)[nH]3)cc2N1`
-- reply > 7.00

-- ask // fetch Collagenase 3 (Homo sapiens) pIC50 for `COCCN1CCN(S(=O)(=O)c2cc(F)c(Oc3ccc(Cl)cc3)c(F)c2)[C@@H](C(=O)NO)C1`
-- reply > 7.30

-- ask // fetch Collagenase 3 (Homo sapiens) pIC50 for `O=C(CCc1ccc2sccc2c1)c1nc2sc3c(c2c(=O)[nH]1)CCC3`
-- reply 4.70 to 7.00

-- ask // fetch Collagenase 3 (Homo sapiens) pIC50 for COc1cccc(C2SC(CC(=O)NO)C(=O)N2CCc2ccc(O)cc2)c1OC (stereo not drawn)
-- reply < 4.30

-- ask // fetch Collagenase 3 (Homo sapiens) pIC50 for `O=C1COc2ccc(CNC(=O)c3nc4sc5c(c4c(=O)[nH]3)CCCCCC5)cc2N1`
-- reply > 7.00

-- ask // fetch Collagenase 3 (Homo sapiens) pIC50 for `Cc1cc(COc2ccc(S(=O)(=O)N[C@@H]3CCN(C=O)C[C@]3(C)C(=O)NO)cc2)c2ccccc2n1`
-- reply < 5.00

-- ask // fetch Collagenase 3 (Homo sapiens) pIC50 for O=C(O)[C@@H]1[C@@H](Cn2nnc3ccc(C(F)(F)F)cc3c2=O)CC[C@H]1C(=O)c1ccc(SCc2cccc(Cl)c2)cc1 (single isomer, unassigned)
-- reply 6.11

-- ask // fetch Collagenase 3 (Homo sapiens) pIC50 for O=C(CC(CCn1nnc2ccccc2c1=O)C(=O)O)c1cc2cc(OCCC3CCOCC3)ccc2o1 (racemic)
-- reply 6.14

-- ask // fetch Collagenase 3 (Homo sapiens) pIC50 for CCCCCOc1ccc2cc(C(=O)CC(CCn3nnc4ccccc4c3=O)C(=O)O)sc2c1 (racemic)
-- reply 5.96

-- ask // fetch Collagenase 3 (Homo sapiens) pIC50 for `Cc1noc(-c2cc3cc(-c4nc(C(=O)NCc5noc(C)n5)[nH]c4C)ccc3[nH]2)n1`
-- reply 9.05
